From: the NTF2 design screens of Basanta et al. (2020)

# ASSAY PROTOCOL: protease stability score; higher = more stable; yeast display proteolysis, trypsin and chymotrypsin
Measured protease stability score accompanies every entry in the list below.
Hey, just send me the number, nothing else.

Please review the entries below; each comes with its answer.
DEKEQTDILLRAMQILTHGDEKRFEELADPNVHVDVGDKTVHGRTQARKWYHDLRRQVDRIHIKHVTVKNGRATIDVVFDRNGRKEKMVLVIQAHNGKIKRAKVEES
-0.125
DEELKKTATEFNKALNQNDEKRLKTLADPNATFVVGDEVIHGMDHVNKHQHDLKRNLRISIDVRDMKNSGPQAHVNAQVVFEIDGRPRQVEINYIITYHNGKVKKVRVDMDPEQLKEIKK
1.08
DTEDNHKLREVIRTNNPQEIREMMDPNVKVRYGNKEIEGRDQAVKHEQDLQHRADRVKIEDMRVHGDKLVVVWSINIDGSEFRFSFEARIHNGKVKFAQIQFTDPDLERKFDDMLQ
0.324
DEEQLKKVVEKLLQAIQNGNLDEIKKMLKDDVTFVLGDKTFRGVEQAVKIVKQLVDKGAEFHVERLEVKGDQAHVKTYWHAGDKTMELTVTYNVRDDKVEKVQADWSEEVKKARKHD
0.985
DDEDADRMVKLIRTNDPETFARQMDPNARVEVGDKKVHGREEALKLLSELYNQADHFQVKSISRHNGRVTVDAILVVNGRTMRARIEVVVHNGRVKSARVKFTNPEDQKQMRRNVQ
-0.185

# evaluate next
Q) What measured protease stability score goes with DEEAIDLANRFLEARKTGDPDKAREQADPNATFKYGDREVHGMDEMARQIEHEHKESRVNIDVDRVTDTGDTAKFDMSVRENHNGQPHTVKMDMVVKAHNGHIKHLSYTLNG ?
A) -0.514

###

Measured protease stability score accompanies every entry in the list below.
# ASSAY PROTOCOL: protease stability score; higher = more stable; yeast display proteolysis, trypsin and chymotrypsin
Hey, just send me the number, nothing else.

Please review the entries below; each comes with its answer.
DEHSIAEQLAHQFIRAQESGDPDQVDRLADENVRVQIGDKQVKGRDVVRRTMQTWRDRSDHITARLRDVSVRNGQINLLIELDYRQNGQTQHHTLVIVAEVHNGQVRMVQIEIR
-0.221
DTRAREVLEKFLKALNKGDPDKMKRQADPNAKFHIGDKQVHGMDQMKEQIRTNQRHMKIDVQVQEVQVRNGRVVARMEVRQTHNGQPTSDILVVEAEVKNGRIKSAHWEKSS
-0.414
DEDEQRTLVEQLARAIQQGDEDQVRKLADPNAKARYGDHEIHGHDQLAHVVRQLKDQVDSIEVESFSVRNGRAELDIRFDVNGRDVKITINAEIRNGRMKHVEFQYTNEDQEKTANR
0.948

Q) What measured protease stability score goes with DEEEIEDVARKLNTGNKDDMRELADKDVKAQVGDKEVHGRENLVRIMKRLKDQADHIKVDEVHVQGNRIQVRFQMNINGTTFDVSFVAKVSNGHIKYFSLRARDPRLDEKILRILK ?
A) 0.493

Q) Also need DDDLVRKAKKFYEIVETGDEDKIVKMLDKDAQINVGDRRIDGREDIKTFEHKQVQHMRIEFDSVHASHQGDKVRVRAQMTVDVNGNPITYQAEFVFNVKNGRIKNLEQRVDEKEMKKIKS , thanks.
A) 0.007

Q) Also need DERHNKQWNKELIKIWTDGDHKKFSEMLDKDVQIQVGDKEYHGREEIVRQYKTLMDRADHFEVKRYEVKGNDITIIFTFQVNGRRDQVRVVFVIENGHVKKITMDKK , thanks.
A) 1.42

###

# ASSAY PROTOCOL: protease stability score; higher = more stable; yeast display proteolysis, trypsin and chymotrypsin;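 further: log10 excess protease needed over predicted unfolded state with 0 meaning unfolded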
Measured protease stability score accompanies every entry in the list below.
Hey, just send me the number, nothing else.

DEHNSRQAKEWVKALNHNDTSRLMELVDPNATITVGDKSLTGREQMSEDVDRKREEINVFVNRVEVNSHGDRAKVRIDYQQHENGRPQRNVIVAILQFHNGKIQRVENEHDQ
-0.052
DEEDAEKILRTAAKAVENGDHKKLVDLGKDGVEYQLADEKAHGPEVMKKVLDYQRKLGVRVELKEVHHEGNKVVTVLVYYHGNTKLEVQIHATADGGKIDRVEVKVPETLKKQLKHG
0.137

# evaluate next
Q) What measured protease stability score goes with EEEMVKHIKRVLENNDEERRAQLADKDAHARVGDRHVHGREELEKIVHHIKRRVDHLEVKDVKADGNTIEADVVMQVDGRTMQYNLTIILHNGTIKSVTIKVRNEEQKKLMEELFG ?
A) 0.317

###

Measured protease stability score accompanies every entry in the list below.
# ASSAY PROTOCOL: protease stability score; higher = more stable; yeast display proteolysis, trypsin and chymotrypsin;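 further: log10 excess protease needed over predicted unfolded state with 0 meaning unfolded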

Please review the entries below; each comes with its answer.
DERKKDRMRELFEAWKTGDEHTAEKMLDKDAKIDVGDHRVQGREQHSTDVRRRKEEIRLRVDIDSIHIHNGRVSVEYKEENNHNGKPDTKNARVDFNMHNGRVQEQKQSNES
-0.35
DERNNKQADQFLRDMEKNDEHKLRKLADENVKFKIGDKVFRGWHDAVTEIATRIREMRVNVHRYDVKTHNGRVNLEIHQTAEYNGQPLNFSYIVIMEYQNGRLVRVNIRVSEEELKTMTQ
0.475
DSKVRRVAERFMHAIQEGNEDDVRKLADKNVQIHVGEKELRGRDQLAKDVSDRTRQIRLHIKHLSIHVQGDKVIVRFDVVETHNGKPHRYRAKAEMRVRNGRVTRYTVKHDG
0.633
DEKEDRKLLQQLAEMFQNGDVERVRKLGKDDVEAEYGDERQHGPDAMKKFVERVKKLGAKVEYKEVHVEGDTVTAKVQADYAGQTVEMHVTYQAQGRRMDRVKVKYDETAQKVIKHG
0.566
DRDDFRRVIHEVQKALKHGDREQLRRLLDENAKVKVGDKEYQGDERAVKVMTTIANKADRMEYKDIHLHGDSVYINVVLNHNGKKDTVVWVIAVNNGKVQFFAQETR
1.01

Q) What measured protease stability score goes with DEEVVRQIEDNLNAQRRNDHEKLKENMDPNATVNVGDKQIHGMSQFAQHVRDMFRHIRRSIKDFRIEVRPNHANVDVKFEVNINGKPESMSANVSVRVTNGTVQEMTIRVDPEHVKRIRR ?
A) 0.816

Q) Also need DESQHQSLAKNLVRIFEEGDEDDVRKLADKDARLEVGDHELRGREQVAKFYKRVRDRIDELEIRDVHVQGERVSVHVVVRYNGRHVDFKINIVAHNGRITRVRVDPDRFRQLHS , thanks.
A) 1.64

###

Measured protease stability score accompanies every entry in the list below.
# ASSAY PROTOCOL: protease stability score; higher = more stable; yeast display proteolysis, trypsin and chymotrypsin;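 further: log10 excess protease needed over predicted unfolded state with 0 meaning unfolded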
Hey, just send me the number, nothing else.

Please review the entries below; each comes with its answer.
DERNIERARKWWEALQENNPDQARKLMDKDVTFTYGDKTYHGREDIAKDIHRRLENMRVEIKSMTLEDHNGRVDAQVDLVVDVNGQPRQVTLDAKVNVENGRVKEFNVQFDEQLRHDIQK
0.132
DEKDVKTAVKDFNTGSFDRFKDLADKDVTARIGNHTVKGHENFQHMMKNLKDRIDHFDVDSMTIKGNEAQMEYRFEINGHDIVVILRVDIHNGRIKHMEVEFRNEEQKKRFDDNQG
0.945
DQEKKATRFARKLIHDIRTNDEEHLVDLADPNVKVQYGDKSYHGREQFKKWWKDLMDQADHVDVKVRDLKVDGNKFVLVYSYVMNHNGQKREVEMNVSAKDKNGRINIQSIQMG
0.301

Q) What measured protease stability score goes with DDKKVHKAANRFVEMFRTGNPDDLHKQIDKDAHATVGDKTYRGRTHVVRQIIEMVERVDHVEVKSISVDGDHAKIDMVLRHDGQEERVDVVMRVHNGRFKSIEFQEQ ?
A) 0.512

Q) Also need DTRANEIWQDIVQALQTGDHERAIRLADPNVHFKVGDREVHGMTQFAHKQAQRHREARIELRVHSVRDRGDHVTVHYEMVVNVDGNPVKNTVTIYIVMRNGKLRSVEVSVDPRDVKRMRS , thanks.
A) 0.108

Q) Also need DDENRRRAETWFRNIQDNNPELIRHMFDEDARLEVGDKEIQGREHFEEQMKRDVEEMRLDLKVKSVEVRGNDVTVKAEAQDDRNGHPRNFTFRIRIRYHNGRVKHVHMDRQG , thanks.
A) 0.092

###

# ASSAY PROTOCOL: protease stability score; higher = more stable; yeast display proteolysis, trypsin and chymotrypsin;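 further: log10 excess protease needed over predicted unfolded state with 0 meaning unfolded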
EXPERIMENTAL READOUT: protease stability score
Hey, just send me the number, nothing else.

Please review the entries below; each comes with its answer.
DEEIVKLLKRLIKAEKNGNPDEIRKNLDPNVRYVVGERTITGREEFVRDQQRRDDQMRVEFQSVQLRQKGDKAVIHQQAVYRHNGRPKTNHQHISIQAKNGKVKDQKVEVKE
0.069
DEEDVEKMVRLVRDGDWEQFARNADENVRIQIGNREVHGRNEAHKAADKLTKHIDHFRIDRYDRNGDKLDVLFRMTVNGQEVKARMYVEVHNGRVTRMEIRATSEEILKRIDEVLS
1.37

# evaluate next
Q) What measured protease stability score goes with DDKEVRRNAEIALKALRTGDEDDAMEQADEDAKMVIGDKEVHGREKLREAVKDFKEEADHVQVRHFEVQNGRVNAEMEVDVNGQKQIYVMHVEVHNGKIKEINIQHK ?
A) 0.787
